Source: patent US7371780B2

Tested on: MCF-7DOX (doxorubicin-resistant) cells
Assay: Clonogenic assay, MCF-7DOX cells
Type: cell-based, human
Conditions: MCF-7DOX cells; 24 h drug; calphostin C light-activated 2 h
readoutLabel: IC50

## Input Look up IC50 for this compound: COc1c(C[C@@H](C)OC(=O)Oc2ccc(O)cc2)c2c3c(C[C@@H](C)OC(=O)c4ccccc4)c(OC)c(=O)c4c(O)cc(OC)c(c5c(OC)cc(O)c(c1=O)c52)c43
## Output 64.2 nM
